# testSystem: Fibroblast growth factor 2 (Homo sapiens)
# testMethodNotes: basic fibroblast growth factor binding to printed compounds – biochemical, small-molecule microarray, 635/667 nm fluorescence, primary screen (AID 1133)
# measurementParameters: FGF2, fluorescence 635/667, higher = more signal
reportedEndpoint: composite z-score

recordsmiles=O=C1c2ccccc2[C@@]2(Cc3ccccc3N(Cc3ccccc3)C2=O)[C@H](c2ccc(CO)cc2)N1Cc1ccccc1C(F)(F)F measured=-0.721
recordsmiles=COC(=O)c1c2oc(c1C(=O)OC)C(=O)N[C@H](Cc1ccccc1)Cn1nncc1C1(CCCCC1)NC(=O)N[C@H](CO)CC2 measured=0.1
recordsmiles=COCCOC(=O)N1C(=O)[C@@]2(c3cc(C#CC4(O)CCCCCC4)ccc31)[C@H](c1ccc(O)cc1)N1[C@H](c3ccccc3)[C@H](c3ccccc3)OC(=O)[C@H]1[C@@H]2C(=O)N1CCc2cc(OC)c(OC)cc2C1 measured=-0.505
recordsmiles=CCCCC(=O)N(Cc1ccccc1F)[C@@H]1CC(C(=O)NCCO)=C[C@H](Oc2c(I)cc(CO)cc2OC)[C@H]1O measured=2.04
recordsmiles=CO[C@H]1O[C@H](CO)[C@@H](OC(=O)Nc2ccccc2-c2ccccc2)[C@H](OC(=O)Nc2ccccc2-c2ccccc2)[C@H]1OC(=O)Nc1ccccc1-c1ccccc1 measured=1.63
recordsmiles=COC(=O)c1nc2oc1CC[C@@H](CO)NC(=O)N(C)Cc1cn(nn1)C[C@H](Cc1ccccc1)NC2=O measured=1.06

The values you see were collected from PubChem BioAssay.
